These data points were gathered from ChEMBL document CHEMBL1153048.

Assay: Tmax in C57BL/6J mouse at 20 mg/kg, po measured up to 8 hrs
Type: ADME, organism-based
Set-up: dose 20 mg/kg, route oral
Conditions: in vivo
The entries below come with measured half-life values attached.
MEASUREMENT_LABEL: half-life

COc1ccc(C(=O)Nc2ncc(Cc3ccc(F)c(Cl)c3)s2)cc1OCCO ... 2.1 h
COc1ccc(C(=O)Nc2ncc(Cc3ccc(F)c(C(F)(F)F)c3)s2)cc1OCCO ... 1.3 h
COc1ccc(C(=O)Nc2ncc(Cc3cccc(Cl)c3)s2)cc1OCCO ... 5.4 h
COc1ccc(C(=O)Nc2ncc(Cc3cccc(OC(F)(F)F)c3)s2)cc1OCCO ... 1.5 h
